System: 953936-095-R-J2-PDC spheroids with HUVEC/MSC, viability;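 also: spheroids exposed to compounds for seven days before read-out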
Test: Anticancer human tumor 953936-095-R-J2-PDC patient-derived cervical squamous cell carcinoma cell line growth inhibition [PI3K]
Settings: second compound 0.0316 µM; first compound 0.0316 µM; stronger effect = lower value
From the text: Combinatorial screen of targeted agents with the PI3K inhibitors inavolisib, alpelisib, duvelisib, and copanlisib in multi-cell type tumor spheroids A high-throughput screen of multi-cell type tumor spheroids was designed to identify active combinations of targeted small molecules and PI3K pathway inhibitors. […] Compounds. […] If the clinical Cmax for an agent had not been determined, the highest concentration tested was 10 microM. […]
Quantity Name: viability, T/C (%)

[[record]]
compound = "C#Cc1c(F)ccc2cc(O)cc(-c3ncc4c(N5CC6CCC(C5)N6)nc(OCC56CCCN5CC(F)C6)nc4c3F)c12 (stereo unspecified) + COc1c(OCCCN2CCOCC2)ccc2c3n(c(=NC(=O)c4cnc(N)nc4)nc12)CCN3"
unit_tag = "%"
numeric_value = 40.1

[[record]]
compound = "Cn1ncc(Cl)c1-c1cc(C(=O)NC(CN)Cc2cccc(F)c2)sc1Cl (stereo unspecified) + CC(Nc1ncnc2nc[nH]c12)c1cc2cccc(Cl)c2c(=O)n1-c1ccccc1"
unit_tag = "%"
numeric_value = 96.5

[[record]]
compound = "C=CC(=O)N1CCN(c2nc(=O)n(-c3c(C)ccnc3C(C)C)c3nc(-c4c(O)cccc4F)c(F)cc23)C(C)C1 (stereo unspecified) + CC(Nc1ncnc2nc[nH]c12)c1cc2cccc(Cl)c2c(=O)n1-c1ccccc1"
unit_tag = "%"
numeric_value = 92.8

[[record]]
compound = "CCCS(=O)(=O)Nc1ccc(F)c(C(=O)c2c[nH]c3ncc(-c4ccc(Cl)cc4)cc23)c1F + Cc1nc(NC(=O)N2CCCC2C(N)=O)sc1-c1ccnc(C(C)(C)C(F)(F)F)c1"
unit_tag = "%"
numeric_value = 90.7

[[record]]
compound = "CC(C)n1nc(-c2ccc3oc(N)nc3c2)c2c(N)ncnc21 + COc1c(OCCCN2CCOCC2)ccc2c3n(c(=NC(=O)c4cnc(N)nc4)nc12)CCN3"
unit_tag = "%"
numeric_value = 16.2

[[record]]
compound = "C=CC(=O)N1CCN(c2nc(=O)n(-c3c(C)ccnc3C(C)C)c3nc(-c4c(O)cccc4F)c(F)cc23)C(C)C1 (stereo unspecified) + COc1c(OCCCN2CCOCC2)ccc2c3n(c(=NC(=O)c4cnc(N)nc4)nc12)CCN3"
unit_tag = "%"
numeric_value = 41.4

[[record]]
compound = "CC(=O)c1c(C)c2cnc(Nc3ccc(N4CCNCC4)cn3)nc2n(C2CCCC2)c1=O + CC(Nc1ccc2c(c1)OCCn1cc(N3C(=O)OCC3C(F)F)nc1-2)C(N)=O"
unit_tag = "%"
numeric_value = 79.1

[[record]]
compound = "Cn1ncc(Cl)c1-c1cc(C(=O)NC(CN)Cc2cccc(F)c2)sc1Cl (stereo unspecified) + CC(Nc1ccc2c(c1)OCCn1cc(N3C(=O)OCC3C(F)F)nc1-2)C(N)=O"
unit_tag = "%"
numeric_value = 78.3

[[record]]
compound = "CC1(C)CCC(CN2CCN(c3ccc(C(=O)NS(=O)(=O)c4ccc(NCC5CCOCC5)c([N+](=O)[O-])c4)c(Oc4cnc5[nH]ccc5c4)c3)CC2)=C(c2ccc(Cl)cc2)C1 + CC(Nc1ncnc2nc[nH]c12)c1cc2cccc(Cl)c2c(=O)n1-c1ccccc1"
unit_tag = "%"
numeric_value = 84.4

[[record]]
compound = "CC1(C)CCC(Nc2ncc(C(F)(F)F)c(-c3c[nH]c4c(P(C)(C)=O)c(C#N)ccc34)n2)CN1 (stereo unspecified) + COc1c(OCCCN2CCOCC2)ccc2c3n(c(=NC(=O)c4cnc(N)nc4)nc12)CCN3"
unit_tag = "%"
numeric_value = 26.9

[[record]]
compound = "CC(C)NCC(C(=O)N1CCN(c2ncnc3c2C(C)CC3O)CC1)c1ccc(Cl)cc1 (stereo unspecified) + CC(Nc1ncnc2nc[nH]c12)c1cc2cccc(Cl)c2c(=O)n1-c1ccccc1"
unit_tag = "%"
numeric_value = 94.7

[[record]]
compound = "CC(=O)c1c(C)c2cnc(Nc3ccc(N4CCNCC4)cn3)nc2n(C2CCCC2)c1=O + CC(Nc1ncnc2nc[nH]c12)c1cc2cccc(Cl)c2c(=O)n1-c1ccccc1"
unit_tag = "%"
numeric_value = 113

[[record]]
compound = "CC(C)NCC(C(=O)N1CCN(c2ncnc3c2C(C)CC3O)CC1)c1ccc(Cl)cc1 (stereo unspecified) + Cc1nc(NC(=O)N2CCCC2C(N)=O)sc1-c1ccnc(C(C)(C)C(F)(F)F)c1"
unit_tag = "%"
numeric_value = 88.8

[[record]]
compound = "CC(Cn1ccc(-c2ccc(C#N)c(Cl)c2)n1)NC(=O)c1cc(C(C)O)[nH]n1 (stereo unspecified) + COc1c(OCCCN2CCOCC2)ccc2c3n(c(=NC(=O)c4cnc(N)nc4)nc12)CCN3"
unit_tag = "%"
numeric_value = 43.5

[[record]]
compound = "Cn1nccc1Nc1nccc(-c2ccn(C(CO)c3ccc(Cl)c(F)c3)c(=O)c2)n1 (stereo unspecified) + CC(Nc1ccc2c(c1)OCCn1cc(N3C(=O)OCC3C(F)F)nc1-2)C(N)=O"
unit_tag = "%"
numeric_value = 75.2

[[record]]
compound = "CC(Cn1ccc(-c2ccc(C#N)c(Cl)c2)n1)NC(=O)c1cc(C(C)O)[nH]n1 (stereo unspecified) + Cc1nc(NC(=O)N2CCCC2C(N)=O)sc1-c1ccnc(C(C)(C)C(F)(F)F)c1"
unit_tag = "%"
numeric_value = 83.7

[[record]]
compound = "Cn1nccc1Nc1nccc(-c2ccn(C(CO)c3ccc(Cl)c(F)c3)c(=O)c2)n1 (stereo unspecified) + CC(Nc1ncnc2nc[nH]c12)c1cc2cccc(Cl)c2c(=O)n1-c1ccccc1"
unit_tag = "%"
numeric_value = 90.7

[[record]]
compound = "CC(Cn1ccc(-c2ccc(C#N)c(Cl)c2)n1)NC(=O)c1cc(C(C)O)[nH]n1 (stereo unspecified) + CC(Nc1ccc2c(c1)OCCn1cc(N3C(=O)OCC3C(F)F)nc1-2)C(N)=O"
unit_tag = "%"
numeric_value = 84.3

[[record]]
compound = "C[C@@H](NC(=O)c1ncnc(N)c1Cl)c1ncc(C(=O)Nc2cc(C(F)(F)F)c(Cl)cn2)s1 + CC(Nc1ccc2c(c1)OCCn1cc(N3C(=O)OCC3C(F)F)nc1-2)C(N)=O"
unit_tag = "%"
numeric_value = 78.6

[[record]]
compound = "CNC(=O)c1ccc(N2C(=S)N(c3ccc(C#N)c(C(F)(F)F)c3)C(=O)C2(C)C)cc1F + CC(Nc1ncnc2nc[nH]c12)c1cc2cccc(Cl)c2c(=O)n1-c1ccccc1"
unit_tag = "%"
numeric_value = 97.9

[[record]]
compound = "CCN1CCN(Cc2ccc(Nc3ncc(F)c(-c4cc(F)c5nc(C)n(C(C)C)c5c4)n3)nc2)CC1 + COc1c(OCCCN2CCOCC2)ccc2c3n(c(=NC(=O)c4cnc(N)nc4)nc12)CCN3"
unit_tag = "%"
numeric_value = 37.7

